Provenance of the data: patent US20210380703A1

- Tested System: Human Fc (human)
- Measurement Notes: ELISA; negative control
Strictly below 0.3 OD in optical density: T. Otherwise: F.

Is the reported optical density for 375_F10 (antibody, V domains shown) VH: EVQLLESGGGLVQPGGSLRLSCAASGFTFSSYSMNWVRQAPGKGLEWVSGINYNGGYTGYADSVKGRFTISRDNSKNTLYLQMNSLRAEDTAVYYCARGATWHDTHLDYWGQGTLVTVSS VL: DIQMTQSPSSLSASVGDRVTITCRASQSILTYLNWYQQKPGKAPKLVIYAATSRASGVPSRFSGSGSGTDFTLTISSLQPEDFATYYCQQSYDTPLTFGGGTKVEIK strictly below 0.3 OD?
T

Try 375_B03 (antibody, V domains shown) VH: EVQLLESGGGLVQPGGSLRLSCAASGFTFSSYSMNWVRQAPGKGLEWVAGINYNGGYTSYADSVKGRFTISRDNSKNTLYLQMNSLRAEDTAVYYCARGATWHDTHLDYWGQGTLVTVSS VL: DIQMTQSPSSLSASVGDRVTITCRASQSILTYLNWYQQKPGKAPKLLIYAATSRASGVPSRFSGSGSGTDFTLTISSLQPEDFATYYCQQSYDSPLTFGGGTKVEIK next.
T

Can you handle 365_C10 (antibody, V domains shown) VH: EVQLLESGGGLVQPGGSLRLSCAASGFTFSSYGMHWVRQAPGKGLEWVASINYNGGYTSYADSVKGRFTISRDNSKNTLYLQMNSLRAEDTAVYYCARSANWHDTALDYWGQGTLVTVSS VL: DIQMTQSPSSLSASVGDRVTITCRASQSILSYVNWYQQKPGKAPKLLIYAATSLASGVPSRFSGSGSGTDFTLTISSLQPEDFATYYCQQSYESPLTFGGGTKVEIK next?
F

Here is the next binder: 365_D12 (antibody, V domains shown) VH: EVQLLESGGGLVQPGGSLRLSCAASGFTFDSYGMNWVRQAPGKGLEWVSNINYNGGYTGYADSVKGRFTISRDNSKNTLYLQMNSLRAEDTAVYYCARSANWHDTALDYWGQGTLVTVSS VL: DIQMTQSPSSLSASVGDRVTITCRASQSIVTYLNWYQQKPGKAPKLVIYAATSRASGVPSRFSGSGSGTDFTLTISSLQPEDFATYYCQQSYDTPLTFGGGTKVEIK
F

Entry to check: 376_F06 (antibody, V domains shown) VH: EVQLLESGGGLVQPGGSLRLSCAASGFTFSSYGMNWVRQAPGKGLEWVSGINYNGGYTGYADSVKGRFTISRDNSKNTLYLQMNSLRAEDTAVYYCARGANWHDTHLDYWGQGTLVTVSS VL: DIQMTQSPSSLSASVGDRVTITCRASQSILTYVNWYQQKPGKAPKLVIYAATSRASGVPSRFSGSGSGTDFTLTISSLQPEDFATYYCQQSYETPLTFGGGTKVEIK
T

Proceed to 376_H04 (antibody, V domains shown) VH: EVQLLESGGGLVQPGGSLRLSCAASGFTFSSYSMNWVRQAPGKGLEWVAGINYNGGYKGYADSVKGRFTISRDNSKNTLYLQMNSLRAEDTAVYYCARGANWHDTALDYWGQGTLVTVSS VL: DIQMTQSPSSLSASVGDRVTITCRASQSILTYVNWYQQKPGKAPKLVIYAATSRASGVPSRFSGSGSGTDFTLTISSLQPEDFATYYCQQSYDLPLTFGGGTKVEIK
F

368_H06 (antibody, V domains shown) VH: EVQLLESGGGLVQPGGSLRLSCAASGFTFDSYGMHWVRQAPGKGLEWVANINYNGGYKSYADSVKGRFTISRDNSKNTLYLQMNSLRAEDTAVYYCARGATWHDTHLDYWGQGTLVTVSS VL: DIQMTQSPSSLSASVGDRVTITCRASQSILTYVNWYQQKPGKAPKLLIYATTSRASGVPSRFSGSGSGTDFTLTISSLQPEDFATYYCQQSYDNPLTFGGGTKVEIK , same question.
F
